# assay comment: Plasma levels of 9-deoxo-16,16-dimethyl-9-methylene-PGE2 by radioimmunoassay after insertion of a suppository
# Format: in vivo, Rhesus monkeys (Macaca mulatta)
# experimental parameters: rhesus monkey, plasma, 30 mg, plasma; Monkey #2; 24.0 Hours; 30 mg Free Acid in H15 Suppositories; read-out: Drug Levels
# Description: A. Midtrimester pregnant female Rhesus monkeys (Macaca mulatta) are used. […] D. The plasma levels of 9-deoxo-16,16-d1methy1-9-methy1ene-PGE2 in monkeys treated with 6 formulations containing either 9-deoxo-16,16-dimethyl-9-methylene-PGE2 free acid or potassium salt are shown in Tables 1-6. In general, higher blood levels are measured in pregnant Rhesus monkeys than in non-pregnant monkeys.
endpoint label: concentration at 24 h (ng/mL)
# unit: ng/mL | format: bare number

Query: Identify measured concentration at 24 h corresponding to C=C1C[C@@H](O)[C@H](/C=C/[C@@H](O)C(C)(C)CCCC)[C@H]1C/C=C\CCCC(=O)O [Free Acid, 9-deoxo-16,16-dimethyl-9-methylene-PGE2]
Result: 4.97

* * *

# assay comment: Plasma levels of 9-deoxo-16,16-dimethyl-9-methylene-PGE2 by radioimmunoassay after insertion of a suppository
# Type: in vivo, Rhesus monkeys (Macaca mulatta)
# experimental parameters: rhesus monkey, plasma, 30 mg, plasma; Monkey #15 (pregnant animal with uterine recording); 24 Hours; 30 mg Free Acid in H15 Plus 2% CSD + 10% Triacetin Suppositories; read-out: Drug Levels
# Procedure: A. Midtrimester pregnant female Rhesus monkeys (Macaca mulatta) are used. […] D. The plasma levels of 9-deoxo-16,16-d1methy1-9-methy1ene-PGE2 in monkeys treated with 6 formulations containing either 9-deoxo-16,16-dimethyl-9-methylene-PGE2 free acid or potassium salt are shown in Tables 1-6. In general, higher blood levels are measured in pregnant Rhesus monkeys than in non-pregnant monkeys.
endpoint label: concentration at 24 h (ng/mL)
Response body: numeric value in ng/mL, unit text excluded.

Query: Identify the reported concentration at 24 h for the following entry. C=C1C[C@@H](O)[C@H](/C=C/[C@@H](O)C(C)(C)CCCC)[C@H]1C/C=C\CCCC(=O)O [Free Acid, 9-deoxo-16,16-dimethyl-9-methylene-PGE2]
Result: 2.76

* * *

# assay comment: Plasma levels of 9-deoxo-16,16-dimethyl-9-methylene-PGE2 by radioimmunoassay after insertion of a suppository
# Format: in vivo, Rhesus monkeys (Macaca mulatta)
# experimental parameters: rhesus monkey, plasma, 30 mg, plasma; Monkey #8; 2 Hours; 30 mg Free Acid in H15 Plus 2% CSD Suppositories; read-out: Drug Levels
endpoint label: concentration at 2 h (ng/mL)
Respond numerically; units are ng/mL and should not be typed.

Query: Determine from records and report concentration at 2 h for C=C1C[C@@H](O)[C@H](/C=C/[C@@H](O)C(C)(C)CCCC)[C@H]1C/C=C\CCCC(=O)O [Free Acid, 9-deoxo-16,16-dimethyl-9-methylene-PGE2]
Result: 78.3

* * *

# assay comment: Plasma levels of 9-deoxo-16,16-dimethyl-9-methylene-PGE2 by radioimmunoassay after insertion of a suppository
# Type: in vivo, Rhesus monkeys (Macaca mulatta)
# experimental parameters: rhesus monkey, plasma, 30 mg, plasma; Monkey #12 (pregnant animal with uterine recording); 1 Hours; 30 mg Potassium Salt in H15 Plus 2% CSD Suppositories; read-out: Drug Levels
Structures can show the parent of a compound that is named as a salt.
endpoint label: concentration at 1 h (ng/mL)
Reply with just the number (in ng/mL).

Query: Let me know recorded concentration at 1 h for C=C1C[C@@H](O)[C@H](/C=C/[C@@H](O)C(C)(C)CCCC)[C@H]1C/C=C\CCCC(=O)O [Potassium Salt] , thanks.
Result: 40.9

* * *

# assay comment: Plasma levels of 9-deoxo-16,16-dimethyl-9-methylene-PGE2 by radioimmunoassay after insertion of a suppository
# Assay type: in vivo, Rhesus monkeys (Macaca mulatta)
# experimental parameters: rhesus monkey, plasma, 30 mg, plasma; Monkey #12 (pregnant animal with uterine recording); 0.25 Hours; 30 mg Potassium Salt in H15 Plus 2% CSD Suppositories; read-out: Drug Levels
Where a name gives a salt, the structure may show the parent alone.
endpoint label: concentration at 0.25 h (ng/mL)
Field: numeric (ng/mL). Do not append units.

Query: Find the measured concentration at 0.25 h of C=C1C[C@@H](O)[C@H](/C=C/[C@@H](O)C(C)(C)CCCC)[C@H]1C/C=C\CCCC(=O)O [Potassium Salt] and report it.
Result: 104

* * *

# assay comment: Plasma levels of 9-deoxo-16,16-dimethyl-9-methylene-PGE2 by radioimmunoassay after insertion of a suppository
# Assay type: in vivo, Rhesus monkeys (Macaca mulatta)
# experimental parameters: rhesus monkey, plasma, 30 mg, plasma; Monkey #5; 1.5 Hours; 30 mg Potassium Salt in H15 Suppositories; read-out: Drug Levels
Where a name gives a salt, the structure may show the parent alone.
endpoint label: concentration at 1.5 h (ng/mL)
Express it in ng/mL; write the number only.

Query: Name the recorded concentration at 1.5 h of the item C=C1C[C@@H](O)[C@H](/C=C/[C@@H](O)C(C)(C)CCCC)[C@H]1C/C=C\CCCC(=O)O [Potassium Salt] in your answer.
Result: 5.91

* * *

# assay comment: Plasma levels of 9-deoxo-16,16-dimethyl-9-methylene-PGE2 by radioimmunoassay after insertion of a suppository
# Assay type: in vivo, Rhesus monkeys (Macaca mulatta)
# experimental parameters: rhesus monkey, plasma, 30 mg, plasma; Monkey #8; 24 Hours; 30 mg Free Acid in H15 Plus 2% CSD Suppositories; read-out: Drug Levels
endpoint label: concentration at 24 h (µg/mL)
The response must be a number in µg/mL with no trailing unit.

Query: Provide measured concentration at 24 h value, entry: C=C1C[C@@H](O)[C@H](/C=C/[C@@H](O)C(C)(C)CCCC)[C@H]1C/C=C\CCCC(=O)O [Free Acid, 9-deoxo-16,16-dimethyl-9-methylene-PGE2]
Result: 0.0157

* * *

# assay comment: Plasma levels of 9-deoxo-16,16-dimethyl-9-methylene-PGE2 by radioimmunoassay after insertion of a suppository
# Assay type: in vivo, Rhesus monkeys (Macaca mulatta)
# experimental parameters: rhesus monkey, plasma, 30 mg, plasma; Monkey #17; 0.5 Hours; 30 mg Potassium Salt in H15 Plus 2% CSD + 10% Triacetin Suppositories; read-out: Drug Levels
Counter-ions that a name gives are not always drawn.
endpoint label: concentration at 0.5 h (ng/mL)
Supply the numeric figure in ng/mL, leaving out any unit text.

Query: Find the measured concentration at 0.5 h of C=C1C[C@@H](O)[C@H](/C=C/[C@@H](O)C(C)(C)CCCC)[C@H]1C/C=C\CCCC(=O)O [Potassium Salt] and report it.
Result: 2.15

* * *

# assay comment: Plasma levels of 9-deoxo-16,16-dimethyl-9-methylene-PGE2 by radioimmunoassay after insertion of a suppository
# Format: in vivo, Rhesus monkeys (Macaca mulatta)
# experimental parameters: rhesus monkey, plasma, 30 mg, plasma; Monkey #15 (pregnant animal with uterine recording); 1.5 Hours; 30 mg Free Acid in H15 Plus 2% CSD + 10% Triacetin Suppositories; read-out: Drug Levels
endpoint label: concentration at 1.5 h (ng/mL)
The reply should contain only the number, in ng/mL.

Query: Give the reported value of concentration at 1.5 h for this record: C=C1C[C@@H](O)[C@H](/C=C/[C@@H](O)C(C)(C)CCCC)[C@H]1C/C=C\CCCC(=O)O [Free Acid, 9-deoxo-16,16-dimethyl-9-methylene-PGE2]
Result: 26.8

* * *

# assay comment: Plasma levels of 9-deoxo-16,16-dimethyl-9-methylene-PGE2 by radioimmunoassay after insertion of a suppository
# Format: in vivo, Rhesus monkeys (Macaca mulatta)
# experimental parameters: rhesus monkey, plasma, 30 mg, plasma; Monkey #3 (pregnant animal with uterine recording); .5 Hours; 30 mg Free Acid in H15 Suppositories; read-out: Drug Levels
endpoint label: concentration at 0.5 h
Don't forget the unit after the number, please.

Query: Give reported concentration at 0.5 h value for C=C1C[C@@H](O)[C@H](/C=C/[C@@H](O)C(C)(C)CCCC)[C@H]1C/C=C\CCCC(=O)O [Free Acid, 9-deoxo-16,16-dimethyl-9-methylene-PGE2]
Result: 63.6 ng/mL

* * *

# assay comment: Plasma levels of 9-deoxo-16,16-dimethyl-9-methylene-PGE2 by radioimmunoassay after insertion of a suppository
# Assay type: in vivo, Rhesus monkeys (Macaca mulatta)
# experimental parameters: rhesus monkey, plasma, 30 mg, plasma; Monkey #16; 2 Hours; 30 mg Potassium Salt in H15 Plus 2% CSD + 10% Triacetin Suppositories; read-out: Drug Levels
Where a name gives a salt, the structure may show the parent alone.
endpoint label: concentration at 2 h (ng/mL)
Please respond with the number in ng/mL and leave the unit unwritten.

Query: Answer with the recorded concentration at 2 h for the molecule listed here: C=C1C[C@@H](O)[C@H](/C=C/[C@@H](O)C(C)(C)CCCC)[C@H]1C/C=C\CCCC(=O)O [Potassium Salt]
Result: 40.2

* * *

# assay comment: Plasma levels of 9-deoxo-16,16-dimethyl-9-methylene-PGE2 by radioimmunoassay after insertion of a suppository
# Assay type: in vivo, Rhesus monkeys (Macaca mulatta)
# experimental parameters: rhesus monkey, plasma, 30 mg, plasma; Monkey #15 (pregnant animal with uterine recording); 0.25 Hours; 30 mg Free Acid in H15 Plus 2% CSD + 10% Triacetin Suppositories; read-out: Drug Levels
endpoint label: concentration at 0.25 h (ng/mL)
The answer is to be given in ng/mL; state only the numeric part.

Query: Supply concentration at 0.25 h value. Item: C=C1C[C@@H](O)[C@H](/C=C/[C@@H](O)C(C)(C)CCCC)[C@H]1C/C=C\CCCC(=O)O [Free Acid, 9-deoxo-16,16-dimethyl-9-methylene-PGE2]
Result: 119
